Literature survey of IC50 (system: UniProt:P10635).

Reference set (6 entries):
compound: CO[C@H]1[C@@H](CF)OC(N)=N[C@]1(C)c1cc(NC(=O)c2ccc(C#N)cn2)ccc1Cl
IC50: ≥ 20 µM
//
compound: CNC(=O)c1cc(COc2nnc(Nc3ccc(F)cc3)c3ccoc23)ccn1
IC50: > 20 µM
//
compound: C[C@@H](c1ccccc1-c1ccc(F)cc1)n1cncc1C(=O)N1CCC(NC2COC[C@H]2O)CC1 (stereo partly drawn)
IC50: > 10 µM
//
compound: CNc1ncnc2[nH]cc(C(=O)c3ccc(Nc4ccc(OC)nc4)nc3F)c12
IC50: > 10 µM
//
compound: CN1c2ccccc2C(O)C2CN(Cc3ccccc3)CCC21 (stereo not drawn)
IC50: ≤ 5 µM
//
compound: COc1ccc(Nc2ccc(Cc3c[nH]c4ncnc(C)c34)c(F)n2)cn1
IC50: > 10 µM

State its IC50 on UniProt:P10635: "NC(=O)c1nc(-c2c(Cl)cccc2Cl)oc1Nc1ccc(C(=O)N2CCS(=O)(=O)CC2)c(F)c1" > 30 µM

# get_value(readout= IC50, system= UniProt:P10635) for "CNC(=O)Nc1cc2n(n1)CCN2c1ccc(C(=O)O)s1" > 20 µM

* * *

Across several publications, the following IC50 results were reported for Cytochrome P450 2D6 (Homo sapiens, UniProt P10635).

Use the examples below as a reference point.
compound: CC(C)(C)c1ccc(NC(=O)c2cc(F)cnc2NCc2ccnc3[nH]ccc23)cc1
measured parameter: IC50
reported value: > 20 µM
//
compound: C[C@H](F)[C@H]1OC(N)=N[C@](C)(c2cc(NC(=O)c3ccc(C#N)cn3)ccc2F)[C@H]1F
measured parameter: IC50
reported value: ≥ 20 µM
//
compound: COCCOc1cc(Br)cc(CC2CCN(CCc3ccc4c(c3)C(=O)CCCO4)CC2)c1
measured parameter: IC50
reported value: 27.5 µM
//
compound: CS(=O)(=O)CC(=O)Nc1c(-c2ccc(Cl)cn2)nn2c1C(=O)N[C@@]1(CCc3cc(F)cc(F)c31)C2
measured parameter: IC50
reported value: > 20 µM
//
compound: CN(C)C(=O)c1cc(COC2=NN=C(Nc3ccc(Cl)cc3)C3C=COC23)ccn1 (centres unmarked)
measured parameter: IC50
reported value: > 20 µM

Form field - read-out: IC50; system: Cytochrome P450 2D6 (Homo sapiens, UniProt P10635); submitted item: "CC1(C)CCCNc2cc(NC(=O)c3cccnc3NCc3ccnc4[nH]ccc34)ccc21" > 20 µM

Item "Cc1cccc2c1Oc1ccc(Cl)cc1N=C2N1CCNCC1" with Cytochrome P450 2D6 (Homo sapiens, UniProt P10635) - IC50? > 10 µM

What reported IC50 corresponds to CCCCOCCOc1ccc(-c2ccc3c(c2)C=C(C(=O)Nc2ccc([S+]([O-])Cc4c(CC)ccnc4C)cc2)CCCN3CC2CCOCC2)cc1 (single isomer, unassigned) on Cytochrome P450 2D6 (Homo sapiens, UniProt P10635)? > 50 µM

Could you share what IC50 was measured for "CCn1cc(Nc2ccc(Cc3c[nH]c4ncnc(OCCOC)c34)c(F)n2)cn1" , tested on Cytochrome P450 2D6 (Homo sapiens, UniProt P10635)? < 5 µM

Write down the reported IC50 of "Cc1cnc(Nc2cnn(C3CCN(CC#N)CC3)c2)nc1-c1ccc(C(=O)NCC#N)cc1" , test system: Cytochrome P450 2D6 (Homo sapiens, UniProt P10635). > 50 µM

Find the measured IC50: item "CO[C@H]1CN(C2CCN(C(=O)c3cncn3[C@@H](C)c3ccccc3-c3ccc(F)cc3)CC2)CC[C@H]1O" , target or system Cytochrome P450 2D6 (Homo sapiens, UniProt P10635). 7.06 µM

Test system Cytochrome P450 2D6 (Homo sapiens, UniProt P10635); read-out IC50; what value for "CCc1ccc(Nc2ccc(Cc3c[nH]c4ncc(C)cc34)c(F)n2)cn1" ? > 10 µM

Requested read-out IC50, target or system Cytochrome P450 2D6 (Homo sapiens, UniProt P10635), entry "CC1(C)CNc2cc(NC(=O)c3cccnc3NCc3ccnc4[nH]ccc34)ccc21" > 20 µM

Lab request: please report IC50 under test system Cytochrome P450 2D6 (Homo sapiens, UniProt P10635) for "Cc1cc(OC(F)F)cnc1C(=O)Nc1csc([C@]23CO[C@@H](C)C[C@H]2CSC(N)=N3)n1" < 30 µM

Observed IC50 on Cytochrome P450 2D6 (Homo sapiens, UniProt P10635) for "COCCOc1cc(Cl)cc(CC2CCN(CCc3ccc4c(c3)C(=O)CCO4)CC2)c1" , please. 23.4 µM

Give IC50 (Cytochrome P450 2D6 (Homo sapiens, UniProt P10635)) of the following compound: "CCc1nn2cc(F)c(N3CC4(CN(C(=O)[C@H]5CCOC5)C4)C3)cc2c1N(C)c1nc(-c2ccc(F)cc2)c(C#N)s1" > 50 µM

Entry "CC1(C)OC(N)=N[C@](C)(c2cc(NC(=O)c3ccc(C#N)cn3)ccc2F)C1(F)F" , system Cytochrome P450 2D6 (Homo sapiens, UniProt P10635): what IC50 was measured? > 10 µM

* * *

Literature compilation of IC50 measurements on Cytochrome P450 2D6 (Homo sapiens).

smiles entry: C[C@H]1SC(N)=N[C@](C)(c2cc(NC(=O)c3ccc(F)cn3)ccc2F)[C@H]1F
IC50: ≥ 20 µM
--
smiles entry: C[C@@H](c1ccccc1-c1ccc(F)cc1)n1cncc1C(=O)N1CCn2c(nnc2C2CC2)C1
IC50: ≥ 10 µM
--
smiles entry: COc1cc(Oc2ccc(/N=c3\[nH]c(=O)n(C[C@H](C)C(=O)O)c(=O)n3Cc3ccc(Cl)cc3)cc2)cc(F)n1
IC50: > 20 µM

Lab note: need IC50 for "CC(C)S(=O)(=O)c1nn(C)cc1Nc1nc(Nc2cc(Cl)c(C3CCN(C)CC3)cc2OC2CC2)ncc1Cl" on Cytochrome P450 2D6 (Homo sapiens), anyone have it? > 10 µM

* * *

pIC50: −log10 of the molar value.
Recorded pIC50 for compounds tested on Cytochrome P450 2D6 (Homo sapiens, UniProt P10635), drawn from a number of studies.

// solved cases for pIC50 follow
compound: C[C@]1(c2cc(NC(=O)c3ccc(C#N)cn3)ccc2F)N=C(N)OCC12CC(F)(F)C2
reported value: ≤ 4.70
//
compound: CC(=O)N1CC(C)(C)c2ccc(NC(=O)c3cccnc3NCc3ccnc4[nH]ccc34)cc21
reported value: < 4.70
//
compound: CO[C@H]1[C@@H](CF)OC(N)=N[C@]1(C)c1cc(NC(=O)c2cnc(OCF)cn2)ccc1F
reported value: ≤ 5.00
//
compound: CNc1ncnc2[nH]cc(C(=O)c3ccc(Nc4ccc(C(F)(F)F)nc4)nc3F)c12
reported value: > 5.30
//
compound: Cc1cnc2[nH]cc(Cc3cnc(Nc4ccc(C(F)(F)F)nc4)nc3)c2c1
reported value: < 5.00
//
compound: CCCCOCCOc1ccc(-c2ccc(OCC)c(/C=C/C(=O)Nc3ccc([S@+]([O-])Cc4c(C)ncn4CC)cc3)c2)cc1
reported value: < 4.30
//
compound: C[C@@H](c1ccccc1-c1ccc(F)cc1)n1cncc1C(=O)N1CC[C@H]2NCCO[C@@H]2C1
reported value: 5.31
//
compound: CCCCC1(C2CCCC2)Cc2cc(OCCCCCC(=O)O)c(Cl)c(Cl)c2C1=O (centres unmarked)
reported value: < 5.00
//
compound: CC(C)(C)c1ccc(NC(=O)c2cc(F)cnc2NCc2ccnc3[nH]ncc23)cc1
reported value: < 4.70
//
compound: C[C@@H](c1ccccc1-c1ccc(Cl)nc1)n1cncc1C(=O)N1CCC2NCCO[C@@H]2C1 (some centres unmarked)
reported value: 5.13

Here's the next entry for you.
Hi! What's the reported pIC50 for "CO[C@H]1CN(C2CCN(C(=O)c3cncn3[C@@H](C)c3ccccc3-c3ccc(F)cc3)CC2)C[C@@H]1O" on Cytochrome P450 2D6 (Homo sapiens, UniProt P10635)? 5.01

* * *

pIC50: −log10 of the molar value.
Below are pIC50 values for Cytochrome P450 2D6 (Homo sapiens, UniProt P10635) collected from several publications.

Field: example entries. Status: answers known.
smiles entry: CC1(C)CCNc2cc(NC(=O)c3cccnc3NCc3ccnc4c3CCN4)ccc21
pIC50: < 4.70
--
smiles entry: Oc1cccc(-c2ccc(-c3cccc(O)c3)cc2)c1
pIC50: 4.66
--
smiles entry: CC1(C)CNc2cc(NC(=O)c3cc(F)cnc3NCc3ccnc4[nH]ccc34)ccc21
pIC50: < 4.70

// switching to the query molecule
Test system Cytochrome P450 2D6 (Homo sapiens, UniProt P10635); read-out pIC50; what value for "C[C@@H](c1ccccc1-c1ccc(F)cc1)n1cncc1C(=O)N1CCC(F)(CN2CCOCC2)CC1" ? ≤ 5.00
